src = patent US20260216176A1

Test: Plasma pharmacokinetics in phase I clinical trial NCT04836195 (oral daily dose)
Assay type: in vivo, human
Details: human, plasma, oral, 210 mg, plasma; 210 mg; Cycle 1 D15; read-out: AUC0-24 (mean, SD)
quantity_name: AUC(0-t)
Please answer in the form of a number followed by its unit of measurement.

Problem: Name the recorded AUC(0-t) of the compound listed here: `Cc1c(N[S+](=O)(O)c2c(Cl)cc(-c3ccnc(N4CCNCC4)c3)cc2Cl)c(CC(C)C)nn1C`
Solution: 27600 ng·h/mL

====

Experiment: Plasma pharmacokinetics in phase I clinical trial NCT04836195 (oral daily dose)
Format: in vivo, human
Details: human, plasma, oral, 40 mg, plasma; 40 mg; Cycle 1 D1; read-out: Tmax (median, range)
quantity_name: Tmax (min)
Report the figure in min without appending any unit label.

Problem: Give recorded Tmax. Cc1c(N[S+](=O)(O)c2c(Cl)cc(-c3ccnc(N4CCNCC4)c3)cc2Cl)c(CC(C)C)nn1C [PCLX-001]
Solution: 54

====

Experiment: Plasma, brain and CSF pharmacokinetics and brain tissue accumulation in mice (LC-MS/MS)
Type: in vivo, male C57BL/6 mice
Conditions: male, C57BL/6, mouse, brain/plasma; 5 mg/kg oral; time point 2.00 h; read-out: B/P-Kp (brain to plasma ratio)
quantity_name: Kp at 2 h
Lab note: jot the number down without any unit.

Problem: Quickly give me recorded Kp at 2 h for `Cc1c(N[S+](=O)(O)c2c(Cl)cc(-c3ccnc(N4CCNCC4)c3)cc2Cl)c(CC(C)C)nn1C`
Solution: 0.02

====

Assay: Plasma pharmacokinetics in phase I clinical trial NCT04836195 (oral daily dose)
Type: in vivo, human
Conditions: human, plasma, oral, 70 mg, plasma; 70 mg; Cycle 1 D15; read-out: Cmax (mean, SD)
quantity_name: Cmax (ng/mL)
Unit ng/mL implied. Number only.

Problem: State its Cmax: `Cc1c(N[S+](=O)(O)c2c(Cl)cc(-c3ccnc(N4CCNCC4)c3)cc2Cl)c(CC(C)C)nn1C`
Solution: 467

====

Assay: Plasma, brain and CSF pharmacokinetics and brain tissue accumulation in mice (LC-MS/MS)
Format: in vivo, male C57BL/6 mice
Settings: male, C57BL/6, mouse, CSF, oral, 5 mg/kg, 5 mg/kg oral; time point 24.00 h; individual animals; read-out: CSF Conc.
quantity_name: concentration at 24 h
Include the unit after the number when you answer.

Problem: Assign concentration at 24 h to the following record: Cc1c(N[S+](=O)(O)c2c(Cl)cc(-c3ccnc(N4CCNCC4)c3)cc2Cl)c(CC(C)C)nn1C [PCLX-001]
Solution: 0 µM

====

Test: Plasma pharmacokinetics in phase I clinical trial NCT04836195 (oral daily dose)
Format: in vivo, human
Details: human, plasma, oral, 70 mg, plasma; 70 mg; Cycle 1 D15; read-out: AUC0-24 (mean, SD)
quantity_name: AUC(0-t)
Quote the value and follow it with the unit of measurement.

Problem: Output AUC(0-t) of Cc1c(N[S+](=O)(O)c2c(Cl)cc(-c3ccnc(N4CCNCC4)c3)cc2Cl)c(CC(C)C)nn1C [PCLX-001]
Solution: 6610 ng·h/mL

====

Test: Plasma pharmacokinetics in phase I clinical trial NCT04836195 (oral daily dose)
Type: in vivo, human
Conditions: human, plasma, oral, 210 mg, plasma; 210 mg; Cycle 1 D1; read-out: Cmax (mean, SD)
From the text: A phase I, multicenter, nonrandomized, open-label study of zelenirstat, entitled “Phase I Trial of PCLX-001 in B-cell Non-Hodgkin Lymphoma and Advanced Solid Malignancies” (reference 6), is being conducted and is registered at clinicaltrials.gov as NCT04836195. […] PCLX-001/zelenirstat plasma concentrations were quantified using a validated ultra-performance liquid chromatography with tandem mass spectrometry detection and analyzed using a nonlinear mixed-effects model.
quantity_name: Cmax
Remember to quote the unit after the number.

Problem: Identify Cmax associated with the compound `Cc1c(N[S+](=O)(O)c2c(Cl)cc(-c3ccnc(N4CCNCC4)c3)cc2Cl)c(CC(C)C)nn1C`
Solution: 1770 ng/mL
